target: CK1α (Homo sapiens, UniProt P48729+Q96SW2); construct: expressed in transfected cells; host or cells: HEK293T (lentiviral transduction, puromycin selection, FACS sorting); assay: Flow cytometry for measuring degradation, HEK293T GFP-POI reporter cells (CK1α); format: cell-based; conditions: CK1; Table 3; read-out: Dmax CK1a (%)
Sequence (P48729 whole entry): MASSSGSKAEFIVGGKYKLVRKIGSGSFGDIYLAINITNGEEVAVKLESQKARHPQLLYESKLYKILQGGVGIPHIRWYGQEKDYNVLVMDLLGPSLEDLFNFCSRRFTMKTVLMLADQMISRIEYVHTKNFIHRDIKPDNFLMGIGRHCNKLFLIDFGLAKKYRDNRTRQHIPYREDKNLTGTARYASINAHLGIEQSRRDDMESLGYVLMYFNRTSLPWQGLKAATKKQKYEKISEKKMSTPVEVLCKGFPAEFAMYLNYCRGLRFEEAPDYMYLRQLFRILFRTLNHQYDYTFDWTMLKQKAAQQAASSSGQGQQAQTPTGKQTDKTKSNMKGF
Sequence (Q96SW2 whole entry): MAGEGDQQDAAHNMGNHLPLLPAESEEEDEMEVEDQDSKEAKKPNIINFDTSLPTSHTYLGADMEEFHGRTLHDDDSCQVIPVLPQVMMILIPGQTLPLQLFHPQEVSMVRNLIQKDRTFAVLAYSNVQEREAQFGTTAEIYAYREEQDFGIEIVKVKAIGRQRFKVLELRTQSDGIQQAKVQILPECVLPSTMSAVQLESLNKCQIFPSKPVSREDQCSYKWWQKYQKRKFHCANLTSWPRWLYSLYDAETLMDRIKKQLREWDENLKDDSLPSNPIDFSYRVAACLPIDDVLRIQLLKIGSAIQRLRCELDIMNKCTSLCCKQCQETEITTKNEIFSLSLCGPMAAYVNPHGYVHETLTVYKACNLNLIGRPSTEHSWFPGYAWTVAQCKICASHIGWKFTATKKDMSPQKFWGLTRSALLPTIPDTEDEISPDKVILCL
Sequence (Q16531 whole entry partner): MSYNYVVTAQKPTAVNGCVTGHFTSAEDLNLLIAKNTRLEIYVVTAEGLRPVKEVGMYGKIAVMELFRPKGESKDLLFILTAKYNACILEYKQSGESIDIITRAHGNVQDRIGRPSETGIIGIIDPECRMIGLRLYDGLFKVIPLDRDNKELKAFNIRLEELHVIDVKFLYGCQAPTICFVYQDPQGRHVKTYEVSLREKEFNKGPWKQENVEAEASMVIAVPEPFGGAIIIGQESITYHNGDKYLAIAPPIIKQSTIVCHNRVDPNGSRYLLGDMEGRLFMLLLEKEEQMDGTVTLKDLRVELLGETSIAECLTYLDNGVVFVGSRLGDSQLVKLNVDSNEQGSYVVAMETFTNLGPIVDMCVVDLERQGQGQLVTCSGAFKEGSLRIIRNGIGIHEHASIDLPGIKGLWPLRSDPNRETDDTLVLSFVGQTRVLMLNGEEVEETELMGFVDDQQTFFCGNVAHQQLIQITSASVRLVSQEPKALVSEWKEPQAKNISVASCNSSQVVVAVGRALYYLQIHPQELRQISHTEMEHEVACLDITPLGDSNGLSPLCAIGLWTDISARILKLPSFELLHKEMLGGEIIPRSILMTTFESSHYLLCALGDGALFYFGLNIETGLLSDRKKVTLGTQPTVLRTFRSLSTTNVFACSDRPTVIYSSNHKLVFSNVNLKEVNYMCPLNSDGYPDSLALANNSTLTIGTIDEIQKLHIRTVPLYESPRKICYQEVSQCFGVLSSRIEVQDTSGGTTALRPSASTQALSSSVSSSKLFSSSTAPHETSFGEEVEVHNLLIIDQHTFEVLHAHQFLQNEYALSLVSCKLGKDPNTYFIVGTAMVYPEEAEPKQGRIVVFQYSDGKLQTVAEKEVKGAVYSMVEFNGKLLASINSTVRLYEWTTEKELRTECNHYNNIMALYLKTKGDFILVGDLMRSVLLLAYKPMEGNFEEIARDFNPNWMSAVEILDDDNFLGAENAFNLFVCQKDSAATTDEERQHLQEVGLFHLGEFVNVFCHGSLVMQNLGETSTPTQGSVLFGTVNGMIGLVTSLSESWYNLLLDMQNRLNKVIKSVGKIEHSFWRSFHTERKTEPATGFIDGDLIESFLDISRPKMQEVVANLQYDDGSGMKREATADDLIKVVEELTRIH
Measure name: Dmax (%)

For orientation, consider the following solved cases.
CN1C(=O)COc2cc(C(=O)Nc3ccc4c(c3)CN(C3CCC(=O)NC3=O)C4=O)ccc21 (stereo not shown) [DEG-94]; 76.7
CSc1ccc2cc(C(=O)Nc3ccc4c(c3)CN(C3CCC(=O)NC3=O)C4=O)ccc2c1 (stereo not shown) [DEG-95]; 78.9

P = CC(=O)N1CCC[C@H]1C(=O)Nc1ccc2c(c1)CN(C1CCC(=O)NC1=O)C2=O (stereo partly shown) [DEG-96]
Q = CN1C(=O)CCc2cc(C(=O)Nc3ccc4c(c3)CN(C3CCC(=O)NC3=O)C4=O)ccc21 (stereo not shown) [DEG-97]
Between P and Q , whose recorded Dmax is greater? Use the label to indicate which entry you chose.
Q
(Q: 78%, P: 40.3%)
